- tested system: proMMP9(20-445;ΔFnII) (SEQ ID NO:6) (Homo sapiens, UniProt P14780, DEL216-390)
- Construct: start methionine (N)
- Sequence (P14780 with tags, fused parts or gaps DEL216-390): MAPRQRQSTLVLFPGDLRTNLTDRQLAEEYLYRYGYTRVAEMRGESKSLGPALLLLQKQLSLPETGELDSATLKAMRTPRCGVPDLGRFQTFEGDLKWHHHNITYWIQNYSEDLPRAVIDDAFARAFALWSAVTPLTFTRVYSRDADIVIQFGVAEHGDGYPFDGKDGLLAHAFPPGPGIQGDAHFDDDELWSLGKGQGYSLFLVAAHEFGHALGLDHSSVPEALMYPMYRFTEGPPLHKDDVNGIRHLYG
- experiment: ThermoFluor binding assay with proMMP9(20-445;ΔFnII)
The compounds listed here are annotated with their Kd.
Number in µM, nothing else.

compound: CCn1c(C)nc2ccc3sc(Nc4cc(S(N)(=O)=O)ccc4OC(F)(F)F)nc3c21 [Example 122]
test value: 1.2
--
compound: Cc1nc2c(ccc3sc(Nc4cc(C(=O)O)ccc4OC(C)C)nc32)[nH]1 [Example 20]
test value: 1.4

// switching to the query compound
// query Return Kd measured with proMMP9(20-445;ΔFnII) (SEQ ID NO:6) (Homo sapiens, UniProt P14780, DEL216-390) given this compound: CCOc1ccncc1Nc1nc2c(ccc3nc(C)n(CC)c32)s1 [Example 155]
// result 0.72
